Measured ED50 values are reported for all entries that follow.
# System: Mus musculus
# experiment: Analgesic activity in fasted male mice in phenylquinone writhing assay 5 min after i.c.v. administration.
# Type: functional
Residues, ends and D or L forms follow the SMILES beside them. *: point of attachment. Benzoyl(4-tBu) = CC(C)(C)c1ccc(C(=O)*)cc1; X2 = O=C(CC1CCC2CCCC21)*; Boc = CC(C)(C)OC(=O)*
Only the number, expressed in ug mouse-1, is required.

Solved entries (count: 2):
{"columns": ["compound", "unit_name", "ED50"],
 "data": [
  ["CC[C@H](C)[C@H](NC(=O)[C@H](Cc1ccc(O)cc1)NC(=O)[C@@H]1CCCN1C(=O)[C@H](CCCCN)NC(=O)c1ccc(C(C)(C)C)cc1)C(=O)N[C@@H](CC(C)C)C(=O)O ({Benzoyl(4-tBu)}-KPYIL-OH)", "ug mouse-1", 0.075],
  ["CC[C@H](C)[C@H](NC(=O)[C@H](Cc1ccc(O)cc1)NC(=O)[C@@H]1CCCN1C(=O)[C@H](CCCCN)NC(=O)CC1CCC2CCCC21)C(=O)N[C@@H](CC(C)C)C(=O)O (stereo partly drawn) (X2-KPYIL-OH)", "ug mouse-1", 0.1]
]}

Notebook: CC[C@H](C)[C@H](NC(=O)[C@H](Cc1ccc(O)cc1)NC(=O)[C@@H]1CCCN1C(=O)[C@H](CCCCN)NC(=O)OC(C)(C)C)C(=O)N[C@@H](CC(C)C)C(=O)O (Boc-KPYIL-OH) , ED50 read as 0.02

----------
Measured ED50 values are reported for all entries that follow.
# Tested on: Mus musculus
# experiment: Analgesic activity of i.v. administered compound in fasted male mice at 10 min. interval was determined using phenylquinone writhing assay
# Type: functional
# protocol_conditions: iv
Residues, ends and D or L forms follow the SMILES beside them. *: point of attachment. Benzoyl(4-tBu) = CC(C)(C)c1ccc(C(=O)*)cc1; X3 = O=C1NC2CSC(CCCCC(=O)*)C2N1; X4 = O=C(CC1CC2CCC1C2)*; Piv = CC(C)(C)C(=O)*; Bz = O=C(c1ccccc1)*

Solved entries (count: 4):
{"columns": ["compound", "assayed_target", "measurement_name", "result"],
 "data": [
  ["CC[C@H](C)[C@H](NC(=O)[C@H](Cc1ccc(O)cc1)NC(=O)[C@@H]1CCCN1C(=O)[C@H](CCCCN)NC(=O)c1ccc(C(C)(C)C)cc1)C(=O)N[C@@H](CC(C)C)C(=O)O ({Benzoyl(4-tBu)}-KPYIL-OH)", "Mus musculus", "ED50", "6.6 mg/kg"],
  ["CC[C@H](C)[C@H](NC(=O)[C@H](Cc1ccc(O)cc1)NC(=O)[C@@H]1CCCN1C(=O)[C@H](CCCCN)NC(=O)CCCCC1SCC2NC(=O)NC21)C(=O)N[C@@H](CC(C)C)C(=O)O (stereo not given in full) (X3-KPYIL-OH)", "Mus musculus", "ED50", "≥ 81 mg/kg"],
  ["CC[C@H](C)[C@H](NC(=O)[C@H](Cc1ccc(O)cc1)NC(=O)[C@@H]1CCCN1C(=O)[C@H](CCCCN)NC(=O)c1ccccc1)C(=O)N[C@@H](CC(C)C)C(=O)O (Bz-KPYIL-OH)", "Mus musculus", "ED50", "5.5 mg/kg"],
  ["CC[C@H](C)[C@H](NC(=O)[C@H](Cc1ccc(O)cc1)NC(=O)[C@@H]1CCCN1C(=O)[C@H](CCCCN)NC(=O)C(C)(C)C)C(=O)N[C@@H](CC(C)C)C(=O)O (Piv-KPYIL-OH)", "Mus musculus", "ED50", "15 mg/kg"]
]}

Notebook: CC[C@H](C)[C@H](NC(=O)[C@H](Cc1ccc(O)cc1)NC(=O)[C@@H]1CCCN1C(=O)[C@H](CCCCN)NC(=O)CC1CC2CCC1C2)C(=O)N[C@@H](CC(C)C)C(=O)O (stereo not given in full) (X4-KPYIL-OH) , ED50 read as 19 mg/kg

Data credit: ChEMBL document CHEMBL1127122
